- Test target: protein kinase B (PKB)
- Protocol: cell-based or functional assay
Square brackets hold non-standard residues; d marks the D form. Ends that are not written are not given here. hLeu = CC(C)CC[C@H](N)C(=O)O; Nva = CCC[C@H](N)C(=O)O; Dap = NC[C@H](N)C(=O)O
Provide the reported % Inhibition of PKB activity at 10 µM of each item.
State just the number; it will be interpreted in %.

input: Fill in the blank: the reported % Inhibition of PKB activity at 10 µM of [dR][dR][dR][dR][dR][dR][dR]RPR[Nva]Y[Dap][hLeu]-NH2 (N-terminus assumed; SMILES CCC[C@H](NC(=O)[C@H](CCCNC(=N)N)NC(=O)[C@@H]1CCCN1C(=O)[C@H](CCCNC(=N)N)NC(=O)[C@@H](CCCNC(=N)N)NC(=O)[C@@H](CCCNC(=N)N)NC(=O)[C@@H](CCCNC(=N)N)NC(=O)[C@@H](CCCNC(=N)N)NC(=O)[C@@H](CCCNC(=N)N)NC(=O)[C@@H](CCCNC(=N)N)NC(=O)[C@H](N)CCCNC(=N)N)C(=O)N[C@@H](Cc1ccc(O)cc1)C(=O)N[C@@H](CN)C(=O)N[C@@H](CCC(C)C)C(N)=O) [MPS ab60025-94] is ____.
output: 92

input: Fill in the blank: the reported % Inhibition of PKB activity at 10 µM of RQIKIWFQNRRMKWKKRPRXYXX (Nva, Dap, Hol of the 6154 part) [MPS ab60025-2] is ____.
output: 92

input: Fill in the blank: the reported % Inhibition of PKB activity at 10 µM of [dK][dK][dK][dK][dK][dK][dK][dK]RPR[Nva]Y[Dap][hLeu]-NH2 (N-terminus assumed; SMILES CCC[C@H](NC(=O)[C@H](CCCNC(=N)N)NC(=O)[C@@H]1CCCN1C(=O)[C@H](CCCNC(=N)N)NC(=O)[C@@H](CCCCN)NC(=O)[C@@H](CCCCN)NC(=O)[C@@H](CCCCN)NC(=O)[C@@H](CCCCN)NC(=O)[C@@H](CCCCN)NC(=O)[C@@H](CCCCN)NC(=O)[C@@H](CCCCN)NC(=O)[C@H](N)CCCCN)C(=O)N[C@@H](Cc1ccc(O)cc1)C(=O)N[C@@H](CN)C(=O)N[C@@H](CCC(C)C)C(N)=O) [MPS ab60025-82] is ____.
output: 92

input: Fill in the blank: the reported % Inhibition of PKB activity at 10 µM of RQIKIWFQNRRMKWKKRPRXYAX (Nva, Hol of the 6184 part) [MPS ab60025-4] is ____.
output: 96
